Assay: chemical genetic growth profiling, strain panel (AID 1159580);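 also: tested at 20 µM; growth read once vehicle control cultures reached saturation at 30 °C; lower values mean less growth of the strain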
Details: S. cerevisiae deletion strains, growth OD, locus YBR279W, strain paf1
Among all 5,500 compounds or so, about 2,000 (36%) were called active. Inconclusive results (about 18%) are left out. Rule as the data show it: active = normalized growth mostly below about 0.91 (no sharp cut-off); inconclusive = no clear call, values can overlap the other calls; inactive = mostly above about 0.92. The list shows a part of the results.
Respond with a class label; see active, inactive

Worked cases, answers included:
CC[C@@H](C(=O)[C@@H](C)[C@@H](O)[C@H](C)[C@@H]1O[C@@H]([C@@H](CC)C(=O)O)CC[C@@H]1C)[C@H]1OC2(C=C[C@@H](O)[C@]3(CC[C@@](C)([C@H]4CC[C@](O)(CC)[C@H](C)O4)O3)O2)[C@H](C)C[C@@H]1C (stereo partly specified): inactive
COc1ccccc1OCC(O)CN1CCN(CC(=O)Nc2c(C)cccc2C)CC1 (stereo unspecified): inactive
O=C(/C=C/c1ccc(O)c(O)c1)O[C@@H]1C[C@](O)(C(=O)O)C[C@@H](O)[C@H]1O: inactive
COc1ccc(CN(CCN(C)C)c2ncccn2)cc1: inactive
Oc1ccc(/C=C/c2cc(O)cc(O)c2)cc1: inactive

Then this compound:
Hello, I am checking results. What call was entered for CC12CCCC(O)(C1)C1CC(C)(C)C1CC2 (stereo unspecified) ?
inactive
